system: Mus musculus; experiment: Anticonvulsant activity in albino Carworth Farms No.1 mouse assessed as protection against maximal electroshock-induced seizure at 300 mg/kg, ip after 0.5 hrs; assay type: functional, organism-based; design: dose 300 mg/kg
Activity calls are given as the source filed them. No cut-off for these calls is given here.
Form entry, call: pick from 1 (active), -1 (inactive)

Could you please tell me the result logged for CN1C(=O)[C@H](c2ccccc2)N2CCC[C@H]2C1=O.Cl in this assay?
1

For this compound, state the assay outcome: O=C1CN2CCC[C@H]2C(=O)N1
-1

Look up the recorded call for Cl.O=C1[C@H](c2ccccc2)N2CCC[C@H]2C(=O)N1Cc1ccccc1 in this test.
1

Returns: the outcome recorded for CCOC(=O)CN1C(=O)[C@H](c2ccccc2)N2CCC[C@H]2C1=O in this assay.
1

Given C[C@H]1C(=O)NC(=O)[C@@H]2CCCN12 , state the outcome it received in this test.
-1

Could you kindly confirm the outcome this assay logged for O=C1[C@@H]2CCCN2[C@H](c2ccccc2)C(=O)N1Cc1ccccc1 ?
-1

For O=C1NC(=O)[C@@H]2CCCN2[C@H]1c1ccccc1 , which call appears in the assay record?
-1

I'd appreciate the recorded outcome for C[C@@H]1C(=O)NC(=O)[C@@H]2CCCN12 from this test.
-1

I would be grateful if you could indicate the recorded call for O=C1NC(=O)[C@@H](c2ccccc2)N2CCC[C@@H]12 .
-1

Which outcome did this test record for the compound Cl.O=C1CN2CCC[C@H]2C(=O)N1CCc1ccccc1 ?
1

What is the recorded call for this compound in the test? Cl.O=C1[C@H](c2ccccc2)N2CCC[C@H]2C(=O)N1CCc1ccccc1
1

Assay outcome for O=C1[C@@H]2CCCN2[C@H](c2ccccc2)C(=O)N1CCc1ccccc1 : what was it?
-1

----------
Exercise: state measured TD50 at 0.25 h for each of the compounds provided.
assay: Neurotoxicity in po dosed albino Sprague-Dawley rat assessed as motor impairment after 0.25 hrs by rotarod test; assay type: toxicity, organism-based; conditions: in vivo

Looking for the measured TD50 at 0.25 h of O=C1NC(=O)C(c2ccccc2)(c2ccccc2)N1 , can you help?
> 1000 mg/kg

Could you tell me which TD50 at 0.25 h is on file for CCC1(C)CC(=O)NC1=O (stereo not given) [ETHOSUXIMIDE] ?
> 500 mg/kg

Record request: TD50 at 0.25 h value, item O=C1NC(=O)[C@@H]2CCCN2[C@H]1c1ccccc1
> 500 mg/kg

Would you kindly share the measured TD50 at 0.25 h for COC[C@@H](NC(C)=O)C(=O)NCc1ccccc1 [LACOSAMIDE] ?
> 500 mg/kg

What value of measured TD50 at 0.25 h is listed for CCC1(c2ccccc2)C(=O)NC(=O)NC1=O ?
61.1 mg/kg

----------
Exercise: state measured TD50 at 0.25 h for each of the compounds provided.
assay: Neurotoxicity in ip dosed albino Carworth Farms No.1 mouse assessed as motor impairment after 0.25 hrs by rotarod test; type: toxicity, organism-based; conditions: Carworth Farms No.1 (albino), in vivo
All answers are understood in mg/kg, so give the number only.

Consider the compound shown here: CCC1(C)CC(=O)NC1=O (centres undefined) [ETHOSUXIMIDE] What is its recorded TD50 at 0.25 h?
341

Quick check: TD50 at 0.25 h of Cl.O=C1[C@H](c2ccccc2)N2CCC[C@H]2C(=O)N1CCc1ccccc1 ?
178

For O=C1NC(=O)[C@@H]2CCCN2[C@H]1c1ccccc1 , what is its reported TD50 at 0.25 h?
122

----------
test system: Mus musculus; experiment: Neurotoxicity in albino Carworth Farms No.1 mouse assessed as motor impairment at 100 mg/kg, ip after 4 hrs by rotarod test; assay type: toxicity, organism-based; parameters: dose 100 mg/kg, route intraperitoneal; details: in vivo
value-type: Activity

>>> df
                           smiles_structure   target_desc  value_type  assay_value
0  O=C1[C@@H]2CCCN2[C@H](c2ccccc2)C(=O)N1CCc1ccccc1  Mus musculus    Activity    Non-toxic
1  CCOC(=O)CN1C(=O)[C@H](c2ccccc2)N2CCC[C@H]2C1=O  Mus musculus    Activity    Non-toxic
2           C[C@H]1C(=O)NC(=O)[C@@H]2CCCN12  Mus musculus    Activity        Toxic
3   O=C1NC(=O)[C@@H](c2ccccc2)N2CCC[C@@H]12  Mus musculus    Activity    Non-toxic

----------
tested on: Mus musculus; experiment: Anticonvulsant activity in ip dosed albino Carworth Farms No.1 mouse assessed as protection against maximal electroshock-induced seizure after 0.25 hrs; assay type: functional; conditions: albino Carworth Farms No.1, ip
Rule: measured ED50 below 20 mg/kg gets Criterion met; anything equal to or greater than 20 mg/kg gets Criterion not met.

Does the reported ED50 of COC[C@@H](NC(C)=O)C(=O)NCc1ccccc1 [LACOSAMIDE] stay below 20 mg/kg?
Criterion met

Just wondering, is ED50 of CCC1(C)CC(=O)NC1=O (stereo unspecified) [ETHOSUXIMIDE] below 20 mg/kg?
Criterion not met

Hello, is ED50 of the following compound strictly smaller than 20 mg/kg? CCC1(c2ccccc2)C(=O)NC(=O)NC1=O
Criterion not met

Bench note: check whether O=C1NC(=O)[C@@H]2CCCN2[C@H]1c1ccccc1 shows ED50 below 20 mg/kg
Criterion not met

hey, is ED50 for O=C1NC(=O)C(c2ccccc2)(c2ccccc2)N1 lower than 20 mg/kg or not?
Criterion met

Is ED50 strictly under 20 mg/kg for the entry Cl.O=C1[C@H](c2ccccc2)N2CCC[C@H]2C(=O)N1CCc1ccccc1 ?
Criterion not met

----------
system: Mus musculus; experiment: Neurotoxicity in albino Carworth Farms No.1 mouse assessed as motor impairment at 300 mg/kg, ip after 0.5 hrs by rotarod test; type: toxicity, organism-based; parameters: dose 300 mg/kg, route intraperitoneal; details: in vivo
value-type: Activity

Consider the following illustrative entries.
>>> df
                           smiles_structure  assay_value
0  CCOC(=O)CN1C(=O)[C@H](c2ccccc2)N2CCC[C@H]2C1=O        Toxic
1      O=C1NC(=O)[C@@H]2CCCN2[C@H]1c1ccccc1    Non-toxic
2                   O=C1CN2CCC[C@H]2C(=O)N1    Non-toxic
3  O=C1[C@@H]2CCCN2[C@H](c2ccccc2)C(=O)N1Cc1ccccc1    Non-toxic
4  CN1C(=O)[C@H](c2ccccc2)N2CCC[C@H]2C1=O.Cl        Toxic
5           C[C@H]1C(=O)NC(=O)[C@@H]2CCCN12    Non-toxic
6          C[C@@H]1C(=O)NC(=O)[C@@H]2CCCN12    Non-toxic
7   O=C1NC(=O)[C@@H](c2ccccc2)N2CCC[C@@H]12    Non-toxic

From here, focus on the item given below.
I would be grateful if you could share the reported Activity for Cl.O=C1[C@H](c2ccccc2)N2CCC[C@H]2C(=O)N1CCc1ccccc1 .
Non-toxic

----------
system: Rattus norvegicus; assay: Anticonvulsant activity in po dosed albino Sprague-Dawley rat assessed as time needs to show peak effect for protection against maximal electroshock-induced seizure after 0.25 hrs; format: functional
value-type: Time (h)
Respond with the bare value in h.

What Time value was documented for this molecule, COC[C@@H](NC(C)=O)C(=O)NCc1ccccc1 [LACOSAMIDE] ?
0.5

Query (molecule): CCC1(c2ccccc2)C(=O)NC(=O)NC1=O ; field requested: Time
5

I would be grateful if you could share the reported Time for O=C1NC(=O)C(c2ccccc2)(c2ccccc2)N1 .
4

Param item = O=C1NC(=O)[C@@H]2CCCN2[C@H]1c1ccccc1 ; retrieve measured Time.
0.25

----------
assay: Neurotoxicity in ip dosed albino Carworth Farms No.1 mouse assessed as motor impairment after 0.5 hrs by rotarod test; assay type: toxicity, organism-based; conditions: Carworth Farms No.1 (albino), in vivo
value-type: TD50 at 0.5 h (mg/kg)
I only need the number, in mg/kg, no unit after it.

Please look up its TD50 at 0.5 h: CCOC(=O)CN1C(=O)[C@H](c2ccccc2)N2CCC[C@H]2C1=O
178

----------
tested on: Mus musculus; test: Anticonvulsant activity in albino Carworth Farms No.1 mouse assessed as protection against electric-current for 3 secs-induced seizure at 100 mg/kg, ip after 0.25 hrs by 6Hz minimal clonic seizure test; format: functional, organism-based; design: dose 100 mg/kg
Active and inactive are the calls of the source. The rule behind the calls is not given here.
value-type: Activity

In [3]: df
Out[3]:
                           smiles_structure  value_type  assay_value
0   O=C1NC(=O)[C@@H](c2ccccc2)N2CCC[C@@H]12    Activity     inactive
1  CCOC(=O)CN1C(=O)[C@H](c2ccccc2)N2CCC[C@H]2C1=O    Activity       Active
2  O=C1[C@@H]2CCCN2[C@H](c2ccccc2)C(=O)N1CCc1ccccc1    Activity     inactive
3      O=C1NC(=O)[C@@H]2CCCN2[C@H]1c1ccccc1    Activity       Active
